// provenance: IntAct's records for PubMed 29039417

B1: BBSome complex member BBS2 (Homo sapiens), Q9BXC9 (parent)
chain: MLLPVFTLKLRHKISPRMVAIGRYDGTHPCLAAATQTGKVFIHNPHTRNQHVSASRVFQSPLESDVSLLSINQAVSCLTAGVLNPELGYDALLVGTQTNLLAYDVYNNSDLFYREVADGANAIVLGTLGDISSPLAIIGGNCALQGFNHEGSDLFWTVTGDNVNSLALCDFDGDGKKELLVGSEDFDIRVFKEDEIVAEMTETEIVTSLCPMYGSRFGYALSNGTVGVYDKTSRYWRIKSKNHAMSIHAFDLNSDGVNELITGWSNGKVDARSDRTGEVIFKDNFSSAIAGVVEGDYRMDGHIQLICCSVDGEIRGYLPGTAEMRGNLMDTSAEQDLIRELSQKKQNLLLELRNYEENAKAELASPLNEADGHRGIIPANTRLHTTLSVSLGNETQTAHTELRISTSNDTIIRAVLIFAEGIFTGESHVVHPSIHNLSSSICIPIVPPKDVPVDLHLKAFVGYRSSTQFHVFESTRQLPRFSMYALTSLDPASEPISYVNFTIAERAQRVVVWLGQNFLLPEDTHIQNAPFQVCFTSLRNGGHLHIKIKLSGEITINTDDIDLAGDIIQSMASFFAIEDLQVEADFPVYFEELRKVLVKVDEYHSVHQKLSADMADHSNLIRSLLVGAEDARLMRDMKTMKSRYMELYDLNRDLLNGYKIRCNNHTELLGNLKAVNQAIQRAGRLRVGKPKNQVITACRDAIRSNNINTLFKIMRVGTASS
partner: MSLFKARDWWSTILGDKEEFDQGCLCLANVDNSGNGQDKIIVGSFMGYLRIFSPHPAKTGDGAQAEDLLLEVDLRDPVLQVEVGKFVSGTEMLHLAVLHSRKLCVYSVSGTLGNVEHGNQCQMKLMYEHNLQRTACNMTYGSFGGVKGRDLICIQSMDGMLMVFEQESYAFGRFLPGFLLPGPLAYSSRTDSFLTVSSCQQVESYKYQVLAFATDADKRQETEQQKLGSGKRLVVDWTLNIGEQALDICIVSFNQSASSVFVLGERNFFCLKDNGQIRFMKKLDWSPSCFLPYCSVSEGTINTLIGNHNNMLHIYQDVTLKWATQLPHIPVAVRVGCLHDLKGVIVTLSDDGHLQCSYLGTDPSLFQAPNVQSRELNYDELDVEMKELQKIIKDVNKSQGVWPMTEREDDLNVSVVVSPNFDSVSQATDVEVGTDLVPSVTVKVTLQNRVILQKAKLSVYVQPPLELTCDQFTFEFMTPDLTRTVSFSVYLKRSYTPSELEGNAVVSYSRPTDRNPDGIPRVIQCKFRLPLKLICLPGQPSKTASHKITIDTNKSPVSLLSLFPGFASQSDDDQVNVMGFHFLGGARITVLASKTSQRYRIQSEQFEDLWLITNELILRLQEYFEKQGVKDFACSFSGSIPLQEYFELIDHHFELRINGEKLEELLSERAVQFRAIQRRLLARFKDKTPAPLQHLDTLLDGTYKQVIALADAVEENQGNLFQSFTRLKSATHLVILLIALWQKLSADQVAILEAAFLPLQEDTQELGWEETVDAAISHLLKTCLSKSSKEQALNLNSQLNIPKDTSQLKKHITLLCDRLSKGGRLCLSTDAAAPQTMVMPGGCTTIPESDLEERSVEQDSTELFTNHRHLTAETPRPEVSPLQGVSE

# Variants of: B1
# EXPERIMENTAL_PARAMETERS: with pthb1_human BBS9, Q3SYG4
ENDPOINT: effect of a mutation on the interaction

D579K: with no effect
R594E: with no effect
Q569K: with no effect
V430K: with no effect
I441E: with no effect
S618K: with no effect
N540K: with no effect
L341K: with no effect
L391K: with no effect
D490E: with no effect
V499K: with no effect
L620E: with no effect
T331A: with no effect
L610K: with no effect
T385K: with no effect
M634A: with no effect
S551E: with no effect
